Experiment: Tmax in Sprague-Dawley rat at 10 mg/kg, po measured up to 24 hrs by LC-MS/MS analysis
Format: ADME, organism-based
Conditions: in vivo
measurementLabel: Tmax

Input: Given the compound Cc1cc(Nc2nc(SCc3ccc(C(=O)Nc4ccc(F)cc4N)cc3)nn3cccc23)n[nH]1 , what is its reported Tmax?
Output: 4 h

----------
Target: Histone deacetylase 8 (Homo sapiens, UniProt Q9BY41)
Sequence (Q9BY41 whole entry): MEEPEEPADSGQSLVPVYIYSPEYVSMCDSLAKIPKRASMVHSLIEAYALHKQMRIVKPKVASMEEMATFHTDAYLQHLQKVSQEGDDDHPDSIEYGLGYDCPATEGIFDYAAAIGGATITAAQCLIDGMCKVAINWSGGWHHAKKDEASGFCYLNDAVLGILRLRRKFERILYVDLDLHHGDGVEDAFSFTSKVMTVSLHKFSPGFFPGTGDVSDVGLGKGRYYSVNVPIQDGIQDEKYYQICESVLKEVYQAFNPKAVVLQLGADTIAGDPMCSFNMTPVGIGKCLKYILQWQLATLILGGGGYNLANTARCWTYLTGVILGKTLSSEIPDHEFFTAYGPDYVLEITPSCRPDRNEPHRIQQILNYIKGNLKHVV
measurementLabel: IC50

Input: Which measured IC50 value corresponds to Cc1cc(Nc2nc(SCc3ccc(C(=O)Nc4ccc(F)cc4N)cc3)nn3cccc23)n[nH]1 ?
Output: > 10 µM

----------
Test: Metabolic stability in dog plasma assessed as parent compound remaining at 100 uM measured after 2 hrs by LC-MS/MS analysis
Type: ADME, cell-free, Canis lupus familiaris
Settings: read-out: Stability
measurementLabel: remaining at 2 h, 100 µM
Note: state the figure and append the unit.

Nc1cc(F)ccc1NC(=O)c1ccc(CNC(=O)/C=C/c2cccnc2)cc1 :: 103%

Next molecule, remaining at 2 h, 100 µM to be filled in.
Input: Value lookup for remaining at 2 h, 100 µM; key = Cc1cc(Nc2nc(SCc3ccc(C(=O)Nc4ccc(F)cc4N)cc3)nn3cccc23)n[nH]1
Output: 85.7%

----------
Target: Histone deacetylase 1 (Homo sapiens, UniProt Q13547)
Sequence (Q13547 whole entry): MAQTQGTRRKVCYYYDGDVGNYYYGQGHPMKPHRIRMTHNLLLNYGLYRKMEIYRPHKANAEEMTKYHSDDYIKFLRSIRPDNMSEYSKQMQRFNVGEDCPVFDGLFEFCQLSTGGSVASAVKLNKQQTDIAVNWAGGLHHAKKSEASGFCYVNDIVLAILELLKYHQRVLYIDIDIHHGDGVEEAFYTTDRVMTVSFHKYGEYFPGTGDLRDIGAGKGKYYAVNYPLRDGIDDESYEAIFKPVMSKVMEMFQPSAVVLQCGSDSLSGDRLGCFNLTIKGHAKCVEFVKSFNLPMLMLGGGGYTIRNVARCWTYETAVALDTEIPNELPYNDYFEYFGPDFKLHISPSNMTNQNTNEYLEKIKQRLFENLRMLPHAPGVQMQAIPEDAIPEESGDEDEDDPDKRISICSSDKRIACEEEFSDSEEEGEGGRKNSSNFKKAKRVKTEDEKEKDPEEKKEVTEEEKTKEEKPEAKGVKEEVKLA
Consider the cut-off 500 nM. If the recorded IC50 is strictly smaller, the label is 1; if not, the label is 0.

Field: example entries. Status: answers known.
COc1ccc(CNc2nc(SCc3ccc(C(=O)Nc4ccccc4N)cc3)nn3cccc23)cc1OC :: 1
CC(C)(C)OC(=O)N1CCC(Nc2nc(SCc3ccc(C(=O)Nc4ccccc4N)cc3)nn3cccc23)CC1 :: 0

Input: Dear reviewer, please state whether Nc1cc(F)ccc1NC(=O)c1ccc(CSc2nc(NCc3ccc(F)cc3)c3cccn3n2)cc1 has IC50 strictly beneath 500 nM.
Output: 0

Input: Would you kindly repeat that for COc1ccc(CNc2nc(SCc3ccc(C(=O)Nc4ccc(F)cc4N)cc3)nn3cccc23)c(OC)c1 ?
Output: 0

Input: // next record Cc1cc(Nc2nc(SCc3ccc(C(=O)Nc4ccccc4N)cc3)nn3cccc23)n[nH]1
Output: 1

Input: For CC(C)(C)OC(=O)N1CCC(Nc2nc(SCc3ccc(C(=O)Nc4ccc(F)cc4N)cc3)nn3cccc23)CC1 then?
Output: 0

Input: And for Nc1ccccc1NC(=O)c1ccc(CSc2nc(Nc3cc[nH]n3)c3cccn3n2)cc1 ?
Output: 1

----------
Assay: Metabolic stability in rat plasma assessed as half life at 100 uM measured upto 120 mins by LC-MS/MS analysis
Format: ADME, cell-free
Listing of recorded half-life at 100 µM by entry.
Only the number, expressed in h, is required.

Nc1cc(F)ccc1NC(=O)c1ccc(CNC(=O)/C=C/c2cccnc2)cc1 :: 8.83

With those in mind, consider the next molecule.
Input: I am curious: what half-life at 100 µM value has been reported for Cc1cc(Nc2nc(SCc3ccc(C(=O)Nc4ccc(F)cc4N)cc3)nn3cccc23)n[nH]1 ?
Output: 8.58

----------
Test: Binding affinity to SNAI1 (unknown origin) assessed as dissociation constant
Set-up: species or system Homo sapiens
measurementLabel: Kd (µM)
Field: numeric (µM). Do not append units.

Some molecules with recorded Kd:
Cc1cccnc1Nc1nc(SCc2ccc(C(=O)Nc3ccc(F)cc3N)cc2)nn2cccc12 :: 0.875
Cc1cccnc1Nc1nc(SCc2ccc(C(=O)Nc3ccccc3N)cc2)nn2cccc12 :: 0.945
Cc1cc(Nc2nc(SCc3ccc(C(=O)Nc4ccccc4N)cc3)nn3cccc23)n[nH]1 :: 0.562
Nc1ccccc1NC(=O)c1ccc(CSc2nc(N3CCOCC3)c3cccn3n2)cc1 :: 0.905
COc1ccc(CNc2nc(SCc3ccc(C(=O)Nc4ccccc4N)cc3)nn3cccc23)cc1 :: 0.356
Nc1cc(F)ccc1NC(=O)c1ccc(CSc2nc(Nc3cc[nH]n3)c3cccn3n2)cc1 :: 0.426
Nc1ccccc1NC(=O)c1ccc(CSc2nc(Nc3cc[nH]n3)c3cccn3n2)cc1 :: 0.984
Cc1cc(Nc2nc(SCc3ccc(C(=O)Nc4ccc(F)cc4N)cc3)nn3cccc23)n[nH]1 :: 0.18

Input: Find the recorded Kd belonging to COc1ccc(CNc2nc(SCc3ccc(C(=O)Nc4ccc(F)cc4N)cc3)nn3cccc23)cc1 and report it.
Output: 0.514

Input: Try Nc1cc(F)ccc1NC(=O)c1ccc(CSc2nc(N3CCOCC3)c3cccn3n2)cc1 next.
Output: 0.754

----------
Test: Clearance in Sprague-Dawley rat at 1 mg/kg, iv measured up to 24 hrs by LC-MS/MS analysis
Assay type: ADME, organism-based
Details: in vivo
measurementLabel: clearance (mL/min/kg)
Write the number in mL/min/kg without appending the unit.

Input: Which clearance value is on record for Cc1cc(Nc2nc(SCc3ccc(C(=O)Nc4ccc(F)cc4N)cc3)nn3cccc23)n[nH]1 ?
Output: 24.2

----------
Test: Metabolic stability in rat liver microsomes assessed as half life incubated for 10 mins by LC-MS/MS analysis
Assay type: ADME, Microsome
measurementLabel: half-life (h)
Your answer is read as h, so omit the unit and give the number.

Cc1cc(Nc2nc(SCc3ccc(C(=O)Nc4ccc(F)cc4N)cc3)nn3cccc23)n[nH]1 :: 0.21

Please find the next compound below.
Input: Data request, read-out half-life, for Nc1cc(F)ccc1NC(=O)c1ccc(CNC(=O)/C=C/c2cccnc2)cc1 [TUCIDINOSTAT]
Output: 3.17

----------
Experiment: Metabolic stability in dog plasma assessed as half life at 100 uM measured upto 120 mins by LC-MS/MS analysis
Assay type: ADME, cell-free, Canis lupus familiaris
measurementLabel: half-life at 100 µM (h)
Answer format: numeric, h implied, no suffix.

Nc1cc(F)ccc1NC(=O)c1ccc(CNC(=O)/C=C/c2cccnc2)cc1 :: 16.3

Attention now turns to another entry.
Input: Fill in: half-life at 100 µM of Cc1cc(Nc2nc(SCc3ccc(C(=O)Nc4ccc(F)cc4N)cc3)nn3cccc23)n[nH]1 is ___
Output: 7.15

----------
Experiment: Metabolic stability in rat liver microsomes assessed as intrinsic clearance incubated for 10 mins by LC-MS/MS analysis
Format: ADME, Microsome
Conditions: read-out: CLH
measurementLabel: microsomal CLint (µL/min/mg)
State just the number; it will be interpreted in µL/min/mg.

Cc1cc(Nc2nc(SCc3ccc(C(=O)Nc4ccc(F)cc4N)cc3)nn3cccc23)n[nH]1 :: 110

Next:
Input: Which value of microsomal CLint has been reported for Nc1cc(F)ccc1NC(=O)c1ccc(CNC(=O)/C=C/c2cccnc2)cc1 in the records?
Output: 7.35

----------
Recorded IC50 values (Histone deacetylase 1 (Homo sapiens, UniProt Q13547)) are given below.
The reply should be a number in nM, with the unit left off.

Input: So what's the measured IC50 for this one? Nc1ccccc1NC(=O)c1ccc(CSc2nc(NC3CCNCC3)c3cccn3n2)cc1
Output: 493

Input: Likewise for COc1ccc(CNc2nc(SCc3ccc(C(=O)Nc4ccc(F)cc4N)cc3)nn3cccc23)cc1 ?
Output: 5040

Input: Would you kindly repeat that for COc1ccc(CNc2nc(SCc3ccc(C(=O)Nc4ccccc4N)cc3)nn3cccc23)c(OC)c1 ?
Output: 336

----------
For Histone deacetylase 1 (Homo sapiens, UniProt Q13547), measured pIC50 is reported for the entries below.
Entry type: numeric. Quantity: pIC50, the -log10 of concentration in molar units.

Below, each entry is followed by its recorded pIC50 result.
COc1ccc(CNc2nc(SCc3ccc(C(=O)Nc4ccc(F)cc4N)cc3)nn3cccc23)cc1OC :: 5.09
Nc1ccccc1NC(=O)c1ccc(CSc2nc(NCc3ccc(C(F)(F)F)cc3)c3cccn3n2)cc1 :: 5.76

Input: Look at this molecule and give its reported pIC50. Nc1ccccc1NC(=O)c1ccc(CSc2nc(N3CCOCC3)c3cccn3n2)cc1
Output: 6.69

Input: Also need Cc1cc(Nc2nc(SCc3ccc(C(=O)Nc4ccc(F)cc4N)cc3)nn3cccc23)n[nH]1 , thanks.
Output: 6.39
